Catalogue of IC50 readings, one per entry.
# Measurement Target: human PD-L1 (hPD-L1) coated on ELISA wells, Example 7 (human, UniProt Q9NZQ7 19-238)
# Sequence (Q9NZQ7 19-238): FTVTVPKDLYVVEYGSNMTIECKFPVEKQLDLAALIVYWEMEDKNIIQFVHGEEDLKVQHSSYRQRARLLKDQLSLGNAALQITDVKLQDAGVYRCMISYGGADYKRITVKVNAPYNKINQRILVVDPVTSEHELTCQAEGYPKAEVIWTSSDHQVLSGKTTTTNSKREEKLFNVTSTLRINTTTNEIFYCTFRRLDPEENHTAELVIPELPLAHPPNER
# Assay Comment: blocking ELISA (hPD1-Fc binding)
Only the number, expressed in nM, is required.

In the examples that follow, each entry is paired with its recorded IC50.
[[record]]
binder = "769-hIgG1 (chimeric PAL769) (antibody, V domains shown) VH: EVQLQESGAELVKPGASVTLSCTASGFNIKDTYMHWVKQRPEQGLEWIGRIDPANDNTKYDPKFQDKATITADTSSDTAYLRLSSLTSEDTAVYYCAREGYGGSYGEGYWGQGTTLTVSS VL: SIVMTQTPKFLLVSAGDRVTITCKASQSVSNDVIWYQQKPGQSPKLLIYYASIRFTGVPDRFAGSGYGTDFTFTINTVQAEDLAVYFCQQDYNSPWTFGGGTKLEIK"
quantity_unit = "nM"
readout_value = 1.57

[[record]]
binder = "h769-IF3 (humanized 769-hIgG1 variant) (antibody, V domains shown) VH: EVQLVQSGAEVKKPGATVKISCKVSGFNIKDTYMHWVQQAPGKGLEWMGLIDPANDNTIYAEKFQGRVTITADTSTDTAYMELSSLRSEDTAVYYCAREGYGGSYGEGYWGQGTLVTVSS VL: EIVMTQSPPTLSLSPGERVTLSCRASQSVSNDLSWYQQKPGQAPRLLIYYASIRFTGIPARFSGSGSGTDFTLTISSLQPEDFAVYYCQQDYNSPWTFGQGTKVEIK"
quantity_unit = "nM"
readout_value = 1.47

[[record]]
binder = "h769-tm3 (humanized 769-hIgG1 variant) (antibody, V domains shown) VH: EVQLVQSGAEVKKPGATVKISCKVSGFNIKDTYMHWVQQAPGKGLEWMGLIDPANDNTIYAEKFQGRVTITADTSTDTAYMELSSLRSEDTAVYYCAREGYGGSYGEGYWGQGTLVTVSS VL: EIVMTQSPPTLSLSPGERVTLSCRASQSVSNDLSWYQQKPGQAPRLLIYYASIRFTGIPARFSGSGSGTDFTLTISSLQPEDFAVYFCQQDYNSPWTFGQGTKVEIK"
quantity_unit = "nM"
readout_value = 1.29


Next binder, IC50 to be filled in.
In plain terms, h769-tm2 (humanized 769-hIgG1 variant) (antibody, V domains shown) VH: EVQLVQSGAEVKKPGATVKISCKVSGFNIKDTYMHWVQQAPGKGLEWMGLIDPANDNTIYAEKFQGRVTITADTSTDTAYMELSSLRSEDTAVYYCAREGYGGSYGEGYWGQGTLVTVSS VL: EIVMTQSPPTLSLSPGERVTLSCRASQSVSNDLSWYQQKPGQAPRLLIYYASIRFTGIPARFSGSGYGTDFTLTISSLQPEDFAVYYCQQDYNSPWTFGQGTKVEIK has a documented IC50 of 1.44
